Entries and their measured selectivity ratio at 4 h follow.
assay: Therapeutic index, ratio of TC50 for human GHOST CXCR4 cells assessed as reduction in cell viability incubated for 4 hrs by XTT assay to EC50 for HIV1 3B reverse transcriptase infected in human GHOST CXCR4 cells assessed as reduction in viral replication incubated for 60 to 90 mins in presence of DTT and TTP by liquid scintillation counter; type: toxicity, cell-based; details: read-out: TI
Lab note: write the figure by itself, no unit.

CC1(C)CN2C(CS/C(N)=N\[C@H]3CC[C@H](CNC(=O)COCC(=O)NCCCCNC(=O)COCC(=O)N[C@@H]4CC[C@@]5(O)[C@H]6Cc7ccc(O)c8c7[C@@]5(CCN6CC5CC5)[C@H]4O8)CC3)=CSC2=N1 = 160

Data point: "CNC(=O)COCC(=O)NCCCCNC(=O)COCC(=O)NC[C@H]1CC[C@H](/N=C(\NC2CCCCC2)SCC2=CSC3=NC(C)(C)CN23)CC1" ; selectivity ratio at 4 h = 3.8
